# method_description: chemical genetic growth profiling, strain panel (AID 1159580);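 note: tested at 20 µM; growth read once vehicle control cultures reached saturation at 30 °C; 1 = growth at the plate median or of vehicle wells; lower values mean less growth of the strain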
# particulars: S. cerevisiae deletion strains, growth OD, locus YNR052C, strain pop2, active compounds read low
Out of some 5,500 compounds screened, about 2,000 (36%) were called active. Not shown: some 18% with an inconclusive outcome. The list shows a part of the results. *1 amine or outer side, *2 acyl side, *3 side chain or, on linkers, in order; H or OH if unused. Where a SMILES comes first, the peptide text is derived from it. Bridges are numbered along the chain shown (N, C = ends). [ ]: non-standard residue; d: D form. The star is where a group is joined. ξ: configuration not given here. ΔAla(E,3-NHCONH2) = NC(=O)N/C=C(/N)C(=O)O; X2 = NC1=NCCC(C(N[*:1])C(=O)[*:2])N1; ξβ3hOrn = NCCCC(N)CC(=O)*; Dap = NC[CH](N)C(=O)O
metric: normalized growth
Please give the numeric answer without any surrounding text.

Example cases with answers are listed next.
* COc1cc(/C=C/C=O)cc(OC)c1OC | 1
* Cc1cc(C(C)(C)C)cc(C)c1CC1=NCCN1 | 0.997
* O=C(CCc1ccc(O)cc1)c1c(O)cc(O)cc1O[C@@H]1O[C@H](CO)[C@@H](O)[C@H](O)[C@H]1O | 0.982
* COc1ccc2c(=O)ccoc2c1 | 1
* COc1ccc(C2C(=O)c3ccccc3C2=O)cc1 | 0.987

**Q:** Give normalized growth for NCCCC(N)CC(=O)NCC1NC(=O)C(CO)NC(=O)C(N)CNC(=O)C(C2CCN=C(N)N2)NC(=O)/C(=C\NC(N)=O)NC1=O (stereo not drawn) (H-[Dap]S[Dap](ξβ3hOrn)[ΔAla(E,3-NHCONH2)][X2]; lactam 1-C; configuration not given here)
**A:** 1.01

**Q:** Give normalized growth for CC(=O)OCC(=O)[C@@]1(O)CCC2C3CC[C@@H]4C[C@H](OC(C)=O)CC[C@]4(C)C3C(=O)C[C@@]21C (stereo partly specified)
**A:** 1.01
